I'd be grateful if you could share measured activation at 50 µM for these entries.
# SUBJECT OF TEST: TRAP1 enzyme (Homo sapiens)
# Construct: 150 nM Trap1 enzyme was incubated with various concentrations of the test compound
# Sequence (Q12931 60-704): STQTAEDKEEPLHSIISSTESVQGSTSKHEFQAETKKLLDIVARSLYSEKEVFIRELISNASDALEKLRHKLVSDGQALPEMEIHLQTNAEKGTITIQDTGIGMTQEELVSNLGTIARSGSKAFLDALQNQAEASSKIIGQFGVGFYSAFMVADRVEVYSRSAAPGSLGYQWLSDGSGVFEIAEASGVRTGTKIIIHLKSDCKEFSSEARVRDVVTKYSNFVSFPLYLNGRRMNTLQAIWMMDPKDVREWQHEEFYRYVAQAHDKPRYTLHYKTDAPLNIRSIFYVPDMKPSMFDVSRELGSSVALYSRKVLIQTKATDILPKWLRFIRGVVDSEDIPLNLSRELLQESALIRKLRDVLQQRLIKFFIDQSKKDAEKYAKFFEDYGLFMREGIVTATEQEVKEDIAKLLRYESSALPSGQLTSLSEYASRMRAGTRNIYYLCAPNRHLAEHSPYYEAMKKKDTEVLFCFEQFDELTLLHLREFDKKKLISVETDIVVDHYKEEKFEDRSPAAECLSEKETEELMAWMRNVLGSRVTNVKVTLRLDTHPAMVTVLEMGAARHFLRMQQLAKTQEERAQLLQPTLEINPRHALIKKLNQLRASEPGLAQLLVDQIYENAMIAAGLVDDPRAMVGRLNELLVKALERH
# TEST DESCRIPTION: ADP Glo assay of TRAP1 ATPase activity
# Type: biochemical
# CONDITION SET: 1 h; compound concentration 50 μM; read-out: ADP-Glo Percent Activation at 50 μM

Lookup result for COc1ncc(NC(=O)c2ccc(CN3CCCCC3)cc2)cc1S(=O)(=O)Nc1c(C)cccc1C ; measured activation at 50 µM: 151 to 180%

Lookup result for CCOc1c(C(=O)Nc2cnc(OC)c(S(=O)(=O)Nc3c(C)cccc3C)c2)cnn1C ; measured activation at 50 µM: 120 to 150%

Lookup result for COc1ncc(NC(=O)c2cnn3c2CCC3)cc1S(=O)(=O)Nc1c(C)cccc1C ; measured activation at 50 µM: 151 to 180%

Lookup result for COc1ncc(NC(=O)c2cnn(C(C)C)c2)cc1S(=O)(=O)Nc1c(C)cccc1C ; measured activation at 50 µM: 151 to 180%

Lookup result for COc1ncc(NC(=O)c2cncc(N3CCCCC3)c2)cc1S(=O)(=O)Nc1c(C)cccc1C ; measured activation at 50 µM: 120 to 150%

Lookup result for COc1ncc(NC(=O)c2cnn(C(F)(F)F)c2)cc1S(=O)(=O)Nc1c(C)cccc1C ; measured activation at 50 µM: 120 to 150%

Lookup result for COc1ncc(NC(=O)c2nccn2C)cc1S(=O)(=O)Nc1c(C)cccc1C ; measured activation at 50 µM: 120 to 150%

Lookup result for COc1ncc(NC(=O)c2ccn3ncnc3c2)cc1S(=O)(=O)Nc1c(C)cccc1C ; measured activation at 50 µM: 120 to 150%

Lookup result for COc1ncc(NC(=O)c2ncn(C(C)C)n2)cc1S(=O)(=O)Nc1c(C)cccc1C ; measured activation at 50 µM: 120 to 150%

Lookup result for COc1ncc(NC(=O)c2ccnn2C(C)C)cc1S(=O)(=O)Nc1c(C)cccc1C ; measured activation at 50 µM: 120 to 150%

Lookup result for COc1nc2c(cc1C(=O)Nc1cnc(OC)c(S(=O)(=O)Nc3c(C)cccc3C)c1)CCC2 ; measured activation at 50 µM: 181 to 352%

Lookup result for COc1cnccc1C(=O)Nc1cnc(OC)c(S(=O)(=O)Nc2c(C)cccc2C)c1 ; measured activation at 50 µM: 120 to 150%

Lookup result for COc1ncc(NC(=O)c2cc(C)sn2)cc1S(=O)(=O)Nc1c(C)cccc1C ; measured activation at 50 µM: 181 to 352%

Lookup result for COc1ncc(NC(=O)c2scnc2C(F)(F)F)cc1S(=O)(=O)Nc1c(C)cccc1C ; measured activation at 50 µM: 151 to 180%

Lookup result for COc1ncc(NC(=O)c2cc(C)no2)cc1S(=O)(=O)Nc1c(C)cccc1C ; measured activation at 50 µM: 120 to 150%

Lookup result for COc1ncc(NC(=O)c2scnc2C)cc1S(=O)(=O)Nc1c(C)cccc1C ; measured activation at 50 µM: 120 to 150%

Lookup result for COc1ncc(NC(=O)c2ccc(N3CCCCC3)nc2)cc1S(=O)(=O)Nc1c(C)cccc1C ; measured activation at 50 µM: 181 to 352%
